From: PubChem BioAssay (Tox21)

molecular target: Cytochrome P450 1A2 (Homo sapiens) (UniProt P05177); assay: Cytochrome P450 Family 1 Subfamily A Member 2 (CYP1A2) small molecule antagonists: luciferase reporter qHTS assay (AID 1671199); settings: P450-Glo CYP1A2 enzyme, luciferin luminescence, 1 h; series mostly up to 53 µM; further: nearly all actives have a fitted effect of over 50% in size; further: potency means the concentration at half of the fitted maximal effect
Sequence (P05177 whole entry, looked up): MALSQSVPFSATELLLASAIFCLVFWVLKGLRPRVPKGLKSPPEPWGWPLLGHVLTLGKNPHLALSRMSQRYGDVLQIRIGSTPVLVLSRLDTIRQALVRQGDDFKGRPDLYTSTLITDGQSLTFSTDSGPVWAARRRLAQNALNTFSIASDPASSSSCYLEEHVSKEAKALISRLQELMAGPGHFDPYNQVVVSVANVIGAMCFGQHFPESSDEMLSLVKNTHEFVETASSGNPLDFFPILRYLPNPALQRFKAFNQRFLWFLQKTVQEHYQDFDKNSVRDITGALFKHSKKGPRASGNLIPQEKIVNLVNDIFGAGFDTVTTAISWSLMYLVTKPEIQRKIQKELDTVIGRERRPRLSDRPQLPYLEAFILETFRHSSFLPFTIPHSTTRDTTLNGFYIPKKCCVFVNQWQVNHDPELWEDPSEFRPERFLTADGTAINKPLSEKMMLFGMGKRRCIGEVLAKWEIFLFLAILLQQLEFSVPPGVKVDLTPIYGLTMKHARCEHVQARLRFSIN
Results filed as inconclusive are left out. Active and inactive are the calls of the source. The call rests on the fitted dose curve; in most records, active means well fitted inhibition curve with a large enough effect in the repeat runs; inconclusive means weak or mixed curves; inactive means no such curve, though single readings can be large or run the other way.
Metric: Potency

Some solved entries appear below for comparison.
CC1=C2[C@H](/C=C(\C)C(=O)O)CC[C@@H](C)[C@H]2CC1 :: 65.6 µM (active)
O=C1CCN(c2ccccc2)N1 :: 35.7 µM (active)
COc1ccccc1OCC(O)COC(N)=O (stereo unspecified) :: inactive
CCC(=O)c1ccc2c(c1)N(CCCN(C)C)c1ccccc1S2 :: 1.82 µM (active)
Cc1cn([C@@H]2O[C@H](CO)[C@@H](O)[C@@H]2F)c(=O)[nH]c1=O :: inactive
CN1CCN(C2=Nc3ccccc3Oc3ccc(Cl)cc32)CC1 :: inactive
Cc1nc(N)nc(N)c1-c1ccc(Cl)c(Cl)c1 :: inactive
c1ccc(CN(CC2=NCCN2)c2ccccc2)cc1 :: inactive
Cc1c(C(=O)NCCO)[n+](=O)c2ccccc2n1[O-] :: inactive
O=[N+]([O-])c1nccn1CO[C@@H](CO)[C@H](O)CO :: inactive

Then this compound:
Prompt: Give the measured Potency of COc1ccc(S(=O)(=O)Nc2nnc(CC(C)C)s2)cc1 .
Completion: inactive

====

Assay: A CellTox Green Cytotoxicity Assay to monitor cytotoxicity in HepG2 cells - 40 hour (AID 1224879); further: nearly all actives have a fitted effect of over 40% in size
Conditions: CellTox Green fluorescence; series mostly up to 76.8 µM
From the text: National Center for Advancing Translational Sciences [NCATS] NIH Chemical Genomics Center [NCGC] U.S. Environmental Protection Agency [EPA] National Institutes of Environmental Health Sciences [NIEHS] National Toxicology Program [NTP] Cell-based models are critical for drug discovery. […] Viable cells produce no appreciable increases in fluorescence. Therefore, the fluorescence signal produced by the binding interaction with dead cell DNA is proportional to cytotoxicity. […]
Records with an inconclusive call do not appear. The source made the active and inactive calls. Calls come from the whole dose curve; as a rule, active = well fitted activation curve with a large enough effect in the repeat runs; inconclusive = weak or mixed curves; inactive = flat fitted curve, though single readings scatter.
Classes to choose from: active, inactive

Prompt: // param item: CCN1CC(CCN2CCOCC2)C(c2ccccc2)(c2ccccc2)C1=O (centres undefined) ; yields the recorded call
Completion: inactive

Prompt: // param item: CC(C)=CCC[C@](C)(O)[C@@H]1CC=C(C)CC1 ; yields the recorded call
Completion: active

Prompt: // param item: CCCOc1ccc2c(c1)CC[C@@H]1[C@@H]2CC[C@]2(C)C(OC)CC[C@@H]12 (some centres undefined) ; yields the recorded call
Completion: inactive

Prompt: // param item: NC1=NCC2c3ccccc3Cc3ccccc3N12 (centres undefined) ; yields the recorded call
Completion: inactive

====

Test: qHTS assay for identifying genotoxic compounds that show differential cytotoxicity against isogenic chicken DT40 cell lines with known DNA damage response pathways - Rad54/Ku70 mutant cell line (AID 743015); further: nearly all actives have a fitted effect of over 60% in size
Conditions: DT40 Rad54/Ku70 mutant viability, CellTiter-Glo, 40 h; series mostly up to 66.8 µM
Description: National Center for Advancing Translational Sciences [NCATS] NIH Chemical Genomics Center [NCGC] U.S. Environmental Protection Agency [EPA] National Institutes of Environmental Health Sciences [NIEHS] National Toxicology Program [NTP] U.S. Food and Drug Administration [FDA] DNA repair pathways play a critical role in cellular homeostasis by repairing DNA damage induced by endogenous processes and xenobiotics. […]
Records with an inconclusive call do not appear. Calls of active or inactive are those of the source. The call rests on the fitted dose curve; in most records, active means well fitted cell-killing curve with a large enough effect in the repeat runs; inconclusive means weak or mixed curves; inactive means no such curve, though single readings can be large or run the other way.
Classes to choose from: active, inactive

Prompt: // param item: C1CSCCS1 ; yields the recorded call
Completion: inactive

Prompt: // param item: CN(C)C(=O)NC1(c2ccccc2)CCN(CCC[C@]2(c3ccc(Cl)c(Cl)c3)CCCN(C(=O)c3ccccc3)C2)CC1 ; yields the recorded call
Completion: active

Prompt: // param item: CC(=O)Nc1ccc(C)c(Cl)c1 ; yields the recorded call
Completion: inactive

Prompt: // param item: C[C@]12C(=O)OC(=O)[C@H]1[C@H]1C=C[C@@H]2C1 ; yields the recorded call
Completion: inactive

Prompt: // param item: CN(C)Cc1ccccc1 ; yields the recorded call
Completion: inactive

Prompt: // param item: OCc1ccccc1O ; yields the recorded call
Completion: inactive

Prompt: // param item: CC1=C(CC(=O)O)c2cc(F)ccc2/C1=C\c1ccc(S(C)(=O)=O)cc1 ; yields the recorded call
Completion: inactive

Prompt: // param item: Cn1cnc2c(F)c(Nc3ccc(Br)cc3Cl)c(C(=O)NOCCO)cc21 ; yields the recorded call
Completion: inactive
